This section presents compounds with their documented LC50 RWW values.
tested on: Rice water weevil [Lissorhoptrus oryzophilus (Kuschel)]; experiment: Rice water weevil topical (RWW), 48 hours; format: in vivo; conditions: μg of test compound per weevil, female adults

Known results for compounds:
Compound | LC50 RWW
CC(C)C(=Nc1ccc(F)c(Cl)c1F)OCc1ccc(F)c(Oc2ccccc2)c1 | 0.065 µg
CC(C)C(=Nc1ccc(F)c(Cl)c1)OCc1cccc(Oc2ccc(F)cc2F)c1 | > 2.5 µg

Asked: Report LC50 RWW for CC(C)C(=Nc1c(F)c(F)c(F)c(F)c1F)OCc1cccc(Oc2ccc(F)cc2)c1 please.
Given back: > 2.5 µg

Asked: Report LC50 RWW for CC(C)(F)C(=Nc1ccc(F)c(Cl)c1)OCc1ccc(F)c(Oc2ccc(F)cc2)c1 please.
Given back: > 2.5 µg

Asked: Report LC50 RWW for CC(C)C(=Nc1ccc2c(c1)OCO2)OCc1cccc(Oc2ccccc2)c1 please.
Given back: > 2.5 µg

Asked: Report LC50 RWW for CC(C)C(=Nc1ccc(Cl)c(Cl)c1)OCc1ccc(F)c(Oc2ccc(Cl)cc2)c1 please.
Given back: 0.14 µg

Asked: Report LC50 RWW for CC(C)C(=Nc1ccc(F)c(Cl)c1)OCc1ccc(F)c(Oc2ccc(F)cc2)c1 please.
Given back: 0.067 µg

Asked: Report LC50 RWW for CC(C)C(=Nc1ccc2c(c1)OC(F)(F)O2)OCc1cccc(Oc2ccccc2)c1 please.
Given back: > 2.5 µg

Asked: Report LC50 RWW for CC(C)C(=Nc1ccc(Cl)cc1)OCc1cccc(Oc2ccc(Cl)cc2)c1 please.
Given back: > 2.5 µg

Asked: Report LC50 RWW for CC(C)C(=Nc1ccc(OC(F)(F)F)cc1)OCc1ccc(F)c(Oc2ccc(F)cc2)c1 please.
Given back: 0.09 µg

Asked: Report LC50 RWW for CC(C)C(=Nc1ccc(Br)c(Cl)c1)OCc1ccc(F)c(Oc2ccc(F)cc2)c1 please.
Given back: > 2.5 µg

Asked: Report LC50 RWW for CC(C)C(=Nc1ccc(F)c(Cl)c1)OCc1ccc(F)c(Oc2ccccc2)c1 please.
Given back: 0.086 µg

Asked: Report LC50 RWW for CC(C)C(=Nc1ccc(C(F)(F)F)c(Br)c1)OCc1ccc(F)c(Oc2ccc(Cl)cc2)c1 [Compound 377] please.
Given back: > 2.5 µg

Asked: Report LC50 RWW for CC(C)C(=Nc1ccc(Cl)c(Cl)c1)OCc1ccc(F)c(Oc2ccccc2)c1 please.
Given back: 0.1 µg

Asked: Report LC50 RWW for CC(C)C(=Nc1ccc(F)c(Cl)c1F)OCc1cccc(Oc2ccc(Cl)cc2)c1 please.
Given back: > 2.5 µg

Asked: Report LC50 RWW for CC(C)C(=Nc1ccc(F)c(I)c1)OCc1ccc(F)c(Oc2ccc(F)cc2)c1 please.
Given back: > 2.5 µg

Asked: Report LC50 RWW for CC(C)C(=Nc1ccc(F)c(Br)c1)OCc1cccc(Oc2ccccc2)c1 please.
Given back: > 2.5 µg
